B1: PhoQ; a variant is named by its letters at X, in order, P23837 (parent)
chain: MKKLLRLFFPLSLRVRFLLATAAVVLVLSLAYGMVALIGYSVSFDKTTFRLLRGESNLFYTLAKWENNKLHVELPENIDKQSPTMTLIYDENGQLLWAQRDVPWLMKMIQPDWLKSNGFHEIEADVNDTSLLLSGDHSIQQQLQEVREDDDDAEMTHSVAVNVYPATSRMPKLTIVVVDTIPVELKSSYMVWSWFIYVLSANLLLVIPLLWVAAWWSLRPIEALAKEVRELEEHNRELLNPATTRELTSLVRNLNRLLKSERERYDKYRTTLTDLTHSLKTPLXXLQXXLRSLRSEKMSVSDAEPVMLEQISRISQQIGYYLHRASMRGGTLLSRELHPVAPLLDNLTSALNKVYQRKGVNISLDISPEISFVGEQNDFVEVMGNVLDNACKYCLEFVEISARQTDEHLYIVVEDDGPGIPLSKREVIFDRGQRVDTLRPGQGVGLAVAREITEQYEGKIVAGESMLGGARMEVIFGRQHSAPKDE

- Variants of: B1
- run-description: enrichment ratio after two sorts for PhoP signalling (ratio (wild type AVST 3.29)); higher = more functional
- condition-context: with PhoP (E. coli)
Over roughly 140,000 sequences, “enrichment ratio after two sorts for PhoP signalling” has its median near 0; the highest 2% begin near 11. This is one part of a sample in which the highest values are shown more often than they occur.
endpoint-name: enrichment ratio

Recorded results for 3 variants are shown here.
{"mutation": "YTMS", "recorded-measurement": "≤ 0.25"}
{"mutation": "NRGY", "recorded-measurement": "≤ 0.25"}
{"mutation": "ERYW", "recorded-measurement": "≤ 0.25"}

Entry MSTS , enrichment ratio reported as 0.73

Entry QFLC , enrichment ratio reported as ≤ 0.25

Entry GLEL , enrichment ratio reported as ≤ 0.25

Entry EQNV , enrichment ratio reported as ≤ 0.25

Entry AACN , enrichment ratio reported as 12.7

Entry TTCN , enrichment ratio reported as 11.9

Entry IQAH , enrichment ratio reported as ≤ 0.25

Entry PAGH , enrichment ratio reported as ≤ 0.25

Entry KSIQ , enrichment ratio reported as ≤ 0.25

Entry TTLW , enrichment ratio reported as ≤ 0.25

Entry SNRN , enrichment ratio reported as ≤ 0.25

Entry QASK , enrichment ratio reported as ≤ 0.25

Entry TTMS , enrichment ratio reported as 26.8

Entry SQRD , enrichment ratio reported as ≤ 0.25

Entry NEFL , enrichment ratio reported as ≤ 0.25

Entry TQAH , enrichment ratio reported as 13.3

Entry EWAP , enrichment ratio reported as ≤ 0.25

Entry AFQW , enrichment ratio reported as ≤ 0.25

Entry QPSQ , enrichment ratio reported as ≤ 0.25

Entry SILC , enrichment ratio reported as 8.13

Entry SNVY , enrichment ratio reported as 1.11

Entry FSSQ , enrichment ratio reported as ≤ 0.25

Entry TQLC , enrichment ratio reported as 13.1

Entry WIMS , enrichment ratio reported as ≤ 0.25

Entry CPSL , enrichment ratio reported as ≤ 0.25

Entry QDLV , enrichment ratio reported as ≤ 0.25
